Assay: in vivo
Settings: male, CD-1, mouse, in vivo, iv, 1 mg/kg
Source text: Experimental objective: To study the pharmacokinetic parameters of the compounds in CD-1 mice […]
quantity.name: half-life (min)
Your answer is read as min, so omit the unit and give the number.

Data request: Need half-life, item `O=C(NC[C@H](O)CN1CCc2ccccc2C1)c1cnc2c(c1)NC(=O)C1(CC1)O2`
Data returned: 54.6

----------
experiment: in vivo; details: male, CD-1, mouse, in vivo, 1 mg/kg
Record form. Attribute: half-life. Fill in for each entry.
Provide only the numeric value, understood in min.

Data request: Need half-life of `O=C(NC[C@H](O)CN1CCc2ccccc2C1)c1ccc2c(c1)NC(=O)C1(CN(CC(F)(F)F)C1)O2` , thanks.
Data returned: 33

Data request: // query half-life value for entry `CC(C)N1CC2(C1)Oc1ccc(C(=O)NC[C@H](O)CN3CCc4ccccc4C3)cc1NC2=O`
Data returned: 129

Data request: Could you tell me which half-life is on file for O=C(NC[C@H](O)CN1CCc2ccccc2C1)c1ccc2c(c1)NC(=O)C1(CC(O)C1)O2 (stereo partly drawn) ?
Data returned: 24.6

----------
Exercise: state measured Bioavailability F for each of the compounds provided.
experiment: Pharmacokinetic evaluation in CD-1 mice; settings: CD-1 mice, oral administration (5 mg/kg)
The answer is to be given in %; state only the numeric part.

Data request: State the recorded Bioavailability F for this entry: `O=C(NC[C@H](O)CN1CCc2ccccc2C1)c1cnc2c(c1)NC(=O)C1(CCC1)O2`
Data returned: 16.4

Data request: Would you kindly share the measured Bioavailability F for `O=C(NC[C@H](O)CN1CCc2ccccc2C1)c1ccc2c(c1)NC(=O)C1(CCOCC1)O2` ?
Data returned: 21.5

Data request: Look up Bioavailability F for this compound: `O=C(NC[C@H](O)CN1CCc2ccccc2C1)c1ccc2c(c1)NC(=O)C1(CCCCC1)O2`
Data returned: 7.2

Data request: Reported Bioavailability F, compound `O=C(NC[C@H](O)CN1CCc2ccccc2C1)c1ccc2c(c1)NC(=O)C1(CCCC1)O2` : ____
Data returned: 8.6

----------
Give Concentration integral AUC for every item shown.
Assay: Pharmacokinetic evaluation in CD-1 mice
Conditions: CD-1 mice, injection administration (1 mg/kg)
Description: Experimental objective: To study the pharmacokinetic parameters of the compounds in CD-1 mice […]
# unit: µM·h | format: bare number

Data request: Can you look up the measured Concentration integral AUC of O=C(NC[C@H](O)CN1CCc2ccccc2C1)c1cnc2c(c1)NC(=O)C1(CC(F)(F)C1)O2 [Compound 29] for me?
Data returned: 0.981

Data request: Entry O=C(NC[C@H](O)CN1CCc2ccccc2C1)c1ccc2c(c1)NC(=O)C1(CCCC1)O2 [Compound 2] : reported Concentration integral AUC = ?
Data returned: 0.967

Data request: Please look up its Concentration integral AUC: O=C(NC[C@H](O)CN1CCc2ccccc2C1)c1cnc2c(c1)NC(=O)C1(CC1)C2 [Compound 39]
Data returned: 1.214

Data request: GET /values?readout=Concentration integral AUC&item= O=C(NC[C@H](O)CN1CCc2ccccc2C1)c1ccc2c(c1)NC(=O)[C@]1(CCOC1)O2 [Compound 36]
Data returned: 0.576

----------
Exercise: for every item that follows, state its recorded Concentration integral AUC.
experiment: Pharmacokinetic evaluation in CD-1 mice; conditions: CD-1 mice, oral administration (5 mg/kg)

Data request: Please report the recorded Concentration integral AUC for `O=C(NC[C@H](O)CN1CCc2ccccc2C1)c1ccc2c(c1)NC(=O)C1(CCCC1)O2` .
Data returned: 0.417 µM·h

Data request: Can you share its Concentration integral AUC? I mean this compound: `O=C(NC[C@H](O)CN1CCc2ccccc2C1)c1ccc2c(c1)NC(=O)[C@]1(CCOC1)O2`
Data returned: 1.092 µM·h

Data request: // query Concentration integral AUC value for entry `O=C(NC[C@H](O)CN1CCc2ccccc2C1)c1ccc2c(c1)NC(=O)C1(CCCCC1)O2`
Data returned: 0.171 µM·h

Data request: What does the record list as Concentration integral AUC for `O=C(NC[C@H](O)CN1CCc2ccccc2C1)c1cnc2c(c1)NC(=O)C1(CC(F)(F)C1)O2` ?
Data returned: 0.441 µM·h

----------
assay: Pharmacokinetic evaluation in CD-1 mice; conditions: CD-1 mice, injection administration (1 mg/kg)
Label Y when Half-life T1/2 is strictly below 30 min; at or above that, label N.

Data request: Hello, is Half-life T1/2 of the following molecule strictly smaller than 30 min? `O=C(NC[C@H](O)CN1CCc2ccccc2C1)c1ccc2c(c1)NC(=O)C1(CCCCC1)O2`
Data returned: Y

Data request: # check: Half-life T1/2 < 30 min for `O=C(NC[C@H](O)CN1CCc2ccccc2C1)c1cnc2c(c1)NC(=O)C1(CC1)C2`
Data returned: N

Data request: Below 30 min on Half-life T1/2? Entry `O=C(NC[C@H](O)CN1CCc2ccccc2C1)c1ccc2c(c1)NC(=O)C1(CCCC1)O2`
Data returned: N

Data request: Half-life T1/2 strictly < 30 min for this molecule? `O=C(NC[C@H](O)CN1CCc2ccccc2C1)c1cnc2c(c1)NC(=O)C1(CC(F)(F)C1)O2`
Data returned: N

Data request: For `O=C(NC[C@H](O)CN1CCc2ccccc2C1)c1ccc2c(c1)NC(=O)[C@]1(CCOC1)O2` , is the recorded Half-life T1/2 below the cut-off of 30 min?
Data returned: Y

Data request: Lab log: compare recorded Half-life T1/2 with 30 min; is it strictly lower for `O=C(NC[C@H](O)CN1CCc2ccccc2C1)c1ccc2c(c1)NC(=O)C1(CC1)O2` ?
Data returned: N

Data request: API: query returns whether the molecule falls strictly under 30 min in Half-life T1/2. Query: `O=C(NC[C@H](O)CN1CCc2ccccc2C1)c1ccc2c(c1)NC(=O)C1(CCOCC1)O2`
Data returned: Y

Data request: I wonder whether `O=C(NC[C@H](O)CN1CCc2ccccc2C1)c1cnc2c(c1)NC(=O)C1(CCC1)O2` has Half-life T1/2 below 30 min. Can you tell?
Data returned: Y

----------
test: in vivo; conditions: male, CD-1, mouse, in vivo, po, 5 mg/kg
Please provide measured bioavailability for the entries that follow.
Use % as the unit, but write only the number.

Data request: Param item = O=C(NC[C@H](O)CN1CCc2ccccc2C1)c1ccc2c(c1)NC(=O)C1(CC(O)C1)O2 (stereo partly shown) ; retrieve measured bioavailability.
Data returned: 6.02

Data request: Given `O=C(NC[C@H](O)CN1CCc2ccccc2C1)c1cnc2c(c1)NC(=O)C1(CC1)O2` , state its recorded bioavailability.
Data returned: 24.5

Data request: Give the measured bioavailability of `O=C(NC[C@H](O)CN1CCc2ccccc2C1)c1ccc2c(c1)NC(=O)C1(CN(CC(F)(F)F)C1)O2` .
Data returned: 14.6

Data request: For `CC(C)N1CC2(C1)Oc1ccc(C(=O)NC[C@H](O)CN3CCc4ccccc4C3)cc1NC2=O` , what is its reported bioavailability?
Data returned: 10

----------
Test: in vivo
Settings: male, CD-1, mouse, in vivo, iv, 1 mg/kg
Excerpt: Experimental objective: To study the pharmacokinetic parameters of the compounds in CD-1 mice […]
quantity.name: AUC (µM·h)
Give the quantity in µM·h, number only.

Data request: Would you mind telling me what AUC value was observed for `O=C(NC[C@H](O)CN1CCc2ccccc2C1)c1cnc2c(c1)NC(=O)C1(CC1)O2` ?
Data returned: 0.875

----------
test: in vivo; details: male, CD-1, mouse, in vivo, 1 mg/kg
quantity.name: clearance (mL/min/kg)
Provide the reading as a plain figure in mL/min/kg.

Data request: Look up clearance for this compound: O=C(NC[C@H](O)CN1CCc2ccccc2C1)c1ccc2c(c1)NC(=O)C1(CC(O)C1)O2 (stereo partly drawn)
Data returned: 71.3

Data request: Name the reported clearance value associated with the compound `CC(C)N1CC2(C1)Oc1ccc(C(=O)NC[C@H](O)CN3CCc4ccccc4C3)cc1NC2=O`
Data returned: 107

Data request: Look at this compound and give its reported clearance. `O=C(NC[C@H](O)CN1CCc2ccccc2C1)c1ccc2c(c1)NC(=O)C1(CN(CC(F)(F)F)C1)O2`
Data returned: 42.1

----------
assay: in vivo; conditions: male, CD-1, mouse, in vivo, iv, 1 mg/kg
quantity.name: clearance

Data request: Quick one: clearance for O=C(NC[C@H](O)CN1CCc2ccccc2C1)c1cnc2c(c1)NC(=O)C1(CC1)O2 [Compound 8] ?
Data returned: 53.3 mL/min/kg

----------
Could you please report measured Clearance rate CL for the items listed next?
assay: Pharmacokinetic evaluation in CD-1 mice; settings: CD-1 mice, injection administration (1 mg/kg)
Give the quantity in mL/min/kg, number only.

Data request: I'd like to know its Clearance rate CL. The compound in question is O=C(NC[C@H](O)CN1CCc2ccccc2C1)c1cnc2c(c1)NC(=O)C1(CC1)C2 [Compound 39]
Data returned: 33.6

Data request: Given the entry O=C(NC[C@H](O)CN1CCc2ccccc2C1)c1ccc2c(c1)NC(=O)C1(CCCC1)O2 [Compound 2] , report its measured Clearance rate CL.
Data returned: 39.7

Data request: For the compound O=C(NC[C@H](O)CN1CCc2ccccc2C1)c1cnc2c(c1)NC(=O)C1(CCC1)O2 [Compound 6] , what Clearance rate CL is on record?
Data returned: 42.1

Data request: What Clearance rate CL value was documented for this compound, O=C(NC[C@H](O)CN1CCc2ccccc2C1)c1ccc2c(c1)NC(=O)C1(CCCCC1)O2 [Compound 3] ?
Data returned: 78.1

Data request: Entry O=C(NC[C@H](O)CN1CCc2ccccc2C1)c1cnc2c(c1)NC(=O)C1(CC(F)(F)C1)O2 [Compound 29] : reported Clearance rate CL = ?
Data returned: 37.9

Data request: I have this compound here, O=C(NC[C@H](O)CN1CCc2ccccc2C1)c1ccc2c(c1)NC(=O)C1(CCOCC1)O2 [Compound 4] , and I need its recorded Clearance rate CL.
Data returned: 63.3

Data request: Looking for the measured Clearance rate CL of O=C(NC[C@H](O)CN1CCc2ccccc2C1)c1ccc2c(c1)NC(=O)C1(CC1)O2 [Compound 7] , can you help?
Data returned: 17.7

Data request: For O=C(NC[C@H](O)CN1CCc2ccccc2C1)c1ccc2c(c1)NC(=O)[C@]1(CCOC1)O2 [Compound 36] , what is its reported Clearance rate CL?
Data returned: 66.3
